These data points were gathered from ChEMBL document CHEMBL5137052.

assay.notes: Cytotoxicity against human HepG2.2.15 cells assessed as reduction in cell viability incubated for 6 days by CCK-8 assay
Type: toxicity, cell-based, HepG2 2.2.15
assay.conditions: time 6 day
Listed compounds paired with reported CC50 at 144 h
endpoint: CC50 at 144 h

> print(dat)
                                   compound  recorded.value
1  COc1cc2c(cc1OCC1COCCO1)CC(C(C)C)n1cc(C(=O)O)c(=O)cc1-2 (stereo not drawn)         > 50 µM
2  COc1cc2c(cc1OCC1COc3cccnc3O1)CC(C(C)C)n1cc(C(=O)O)c(=O)cc1-2 (stereo not drawn)         > 50 µM
3  COc1cc2c(cc1OC(C)c1ccc3c(c1)OCO3)CC(C(C)C)n1cc(C(=O)O)c(=O)cc1-2 (stereo not drawn)         > 50 µM
